Molecular target: DNA topoisomerase 1 (Homo sapiens)
Experiment: Inhibition of human recombinant topoisomerase-1 assessed as inhibition of relaxation of supercoiled pBR322 plasmid DNA at 20 uM measured after 1 hr by ethidium bromide staining based agarose gel electrophoresis relative to control
METRIC: inhibition (%)

Below, 6 compounds whose answers are already recorded.
Oc1ccc(-c2cc(-c3ccccc3)c3oc4cc(O)ccc4c3n2)cc1; 0
Oc1ccc(-c2cc(-c3ccccc3)nc3c2oc2cc(O)ccc23)cc1; 0
Oc1ccc(-c2cc(-c3cccc(O)c3)c3oc4cc(O)ccc4c3n2)cc1; 38.1
Oc1ccc2c(c1)oc1c(-c3ccccc3O)cc(-c3ccccc3O)nc12; 0
Oc1cccc(-c2cc(-c3ccccc3O)c3oc4cc(O)ccc4c3n2)c1; 0
Oc1ccc(-c2cc(-c3ccccc3O)nc3c2oc2cc(O)ccc23)cc1; 0

1: Oc1ccc2c(c1)oc1c(-c3ccccc3)cc(-c3ccccc3)nc12
2: Oc1ccc(-c2cc(-c3cccc(O)c3)nc3c2oc2cc(O)ccc23)cc1
3: Oc1ccc(-c2cc(-c3ccc(O)cc3)c3oc4cc(O)ccc4c3n2)cc1
Query: Ascending by inhibition, please. Give your ranking as a list of the labels in the requested order.
Result: 1, 3, 2
(1: 0%, 3: 18.6%, 2: 60.9%)

From: ChEMBL document CHEMBL4184253
